- Assay procedure: in vivo
- Condition notes: male, Indian origin, rhesus monkey, in vivo, sc, 300 mg/kg, AUC0-1680h
Property label: AUC(0-t) (µM·h)
Reply numerically in µM·h, unit not repeated.

Form field AUC(0-t), entry "CC(C)(C#Cc1ccc(-c2ccc(Cl)c3c(NS(=O)(=O)C4CC4)nn(CC(F)F)c23)c([C@H](Cc2cc(F)cc(F)c2)NC(=O)Cn2nc(C(F)F)c3c2C(F)(F)[C@@H]2C[C@H]32)n1)S(C)(=O)=O" : 1010

----------
- Assay procedure: in vivo
- Condition notes: male, Indian origin, rhesus monkey, in vivo, sc, 100 mg/kg, AUC0-168h
Property label: AUC(0-t)
Put your answer as a value accompanied by its unit after it.

Short answer for "CC(C)(C#Cc1ccc(-c2ccc(Cl)c3c(NS(=O)(=O)C4CC4)nn(CC(F)F)c23)c([C@H](Cc2cc(F)cc(F)c2)NC(=O)Cn2nc(C(F)F)c3c2C(F)(F)[C@@H]2C[C@H]32)n1)S(C)(=O)=O" : AUC(0-t) was 147 µM·h

----------
- Assay procedure: Pilot pharmacokinetic study, single subcutaneous administration
- Condition notes: male, Indian origin, rhesus monkey, in vivo, 300 mg/kg, Plasma GS-CA1 level, 300 mg/kg s.c.; 1 week post dose; individual animals; unit inferred
Property label: concentration at 1 week

GET /value?item= "CC(C)(C#Cc1ccc(-c2ccc(Cl)c3c(NS(=O)(=O)C4CC4)nn(CC(F)F)c23)c([C@H](Cc2cc(F)cc(F)c2)NC(=O)Cn2nc(C(F)F)c3c2C(F)(F)[C@@H]2C[C@H]32)n1)S(C)(=O)=O" &field=concentration at 1 week returns 1.31 µM

----------
- Assay procedure: Plasma GS-CA1 pharmacokinetics in the repeat SHIV challenge study
- Format: in vivo, rhesus macaques of Indian origin
- Condition notes: both sexes, Indian origin, rhesus monkey, in vivo, sc; 150 mg/kg single s.c., n=8, mean ± SD
Property label: AUC(0-t) (µM·h)
Reply numerically in µM·h, unit not repeated.

Lab note: CC(C)(C#Cc1ccc(-c2ccc(Cl)c3c(NS(=O)(=O)C4CC4)nn(CC(F)F)c23)c([C@H](Cc2cc(F)cc(F)c2)NC(=O)Cn2nc(C(F)F)c3c2C(F)(F)[C@@H]2C[C@H]32)n1)S(C)(=O)=O [GS-CA1] gave AUC(0-t) of 959

----------
- Assay procedure: in vitro
- Condition notes: rhesus
Property label: recovery at 24 h, 2 μM (%)
Record the value in %, omitting the unit from your answer.

Entry CC(C)(C#Cc1ccc(-c2ccc(Cl)c3c(NS(=O)(=O)C4CC4)nn(CC(F)F)c23)c([C@H](Cc2cc(F)cc(F)c2)NC(=O)Cn2nc(C(F)F)c3c2C(F)(F)[C@@H]2C[C@H]32)n1)S(C)(=O)=O [GS-CA1] , recovery at 24 h, 2 μM reported as 60

----------
- Assay procedure: Pilot pharmacokinetic study, single subcutaneous administration
- Condition notes: male, Indian origin, rhesus monkey, in vivo, 300 mg/kg, Plasma GS-CA1 level, 300 mg/kg s.c.; 0.006 weeks post dose; individual animals; unit not given (Fig. 1b in nM)
Property label: concentration at 0.006 weeks (nM)
Give the number; nM is assumed, so skip it.

For reference, reported concentration at 0.006 weeks for CC(C)(C#Cc1ccc(-c2ccc(Cl)c3c(NS(=O)(=O)C4CC4)nn(CC(F)F)c23)c([C@H](Cc2cc(F)cc(F)c2)NC(=O)Cn2nc(C(F)F)c3c2C(F)(F)[C@@H]2C[C@H]32)n1)S(C)(=O)=O [GS-CA1] stands at 68.8

----------
- Assay procedure: Plasma GS-CA1 pharmacokinetics in the repeat SHIV challenge study
- Assay type: in vivo, rhesus macaques of Indian origin
- Condition notes: both sexes, Indian origin, rhesus monkey, in vivo, sc; 300 mg/kg single s.c., n=8, mean ± SD
Property label: AUC(0-inf) (µM·h)
Give your result in µM·h as a bare value.

Looking up "CC(C)(C#Cc1ccc(-c2ccc(Cl)c3c(NS(=O)(=O)C4CC4)nn(CC(F)F)c23)c([C@H](Cc2cc(F)cc(F)c2)NC(=O)Cn2nc(C(F)F)c3c2C(F)(F)[C@@H]2C[C@H]32)n1)S(C)(=O)=O" , I see its AUC(0-inf) listed as 2040

----------
- Assay procedure: Pilot pharmacokinetic study, single subcutaneous administration
- Condition notes: male, Indian origin, rhesus monkey, in vivo, 100 mg/kg, Plasma GS-CA1 level, 100 mg/kg s.c.; 0.57 weeks post dose; individual animals; unit inferred
Property label: concentration at 0.57 weeks (nM)
Expressed in nM, but write only the number.

The recorded concentration at 0.57 weeks for CC(C)(C#Cc1ccc(-c2ccc(Cl)c3c(NS(=O)(=O)C4CC4)nn(CC(F)F)c23)c([C@H](Cc2cc(F)cc(F)c2)NC(=O)Cn2nc(C(F)F)c3c2C(F)(F)[C@@H]2C[C@H]32)n1)S(C)(=O)=O [GS-CA1] is 487

----------
- Assay procedure: Pilot pharmacokinetic study, single subcutaneous administration
- Condition notes: male, Indian origin, rhesus monkey, in vivo, 300 mg/kg, Plasma GS-CA1 level, 300 mg/kg s.c.; 14 weeks post dose; individual animals; unit inferred
- Method: All study protocols were reviewed and approved by the Covance Laboratories Institutional Animal Care and Use Committee (IACUC). Rhesus plasma samples were stored frozen at −80 °C. […] Quantification was performed with a Thermo Scientific Xcalibur 4.0.27.19 using accurate masses (<5 parts per million mass error; [M + H]^+ of 958.1853 for GC-CA1 and 758.3270 for the internal standard, respectively)[22],[23]. […]
Property label: concentration at 14 weeks (nM)
# number only, unit nM dropped from output

concentration at 14 weeks recorded for this compound, CC(C)(C#Cc1ccc(-c2ccc(Cl)c3c(NS(=O)(=O)C4CC4)nn(CC(F)F)c23)c([C@H](Cc2cc(F)cc(F)c2)NC(=O)Cn2nc(C(F)F)c3c2C(F)(F)[C@@H]2C[C@H]32)n1)S(C)(=O)=O [GS-CA1] , is 43.8

----------
- Assay procedure: Pilot pharmacokinetic study, single subcutaneous administration
- Condition notes: male, Indian origin, rhesus monkey, in vivo, 100 mg/kg, Plasma GS-CA1 level, 100 mg/kg s.c.; 4 weeks post dose; individual animals; unit inferred
Property label: concentration at 4 weeks
Put down the number, then write its unit next to it.

Data point: "CC(C)(C#Cc1ccc(-c2ccc(Cl)c3c(NS(=O)(=O)C4CC4)nn(CC(F)F)c23)c([C@H](Cc2cc(F)cc(F)c2)NC(=O)Cn2nc(C(F)F)c3c2C(F)(F)[C@@H]2C[C@H]32)n1)S(C)(=O)=O" ; concentration at 4 weeks = 138 nM

----------
- Assay procedure: Plasma GS-CA1 pharmacokinetics in the repeat SHIV challenge study
- Format: in vivo, rhesus macaques of Indian origin
- Condition notes: both sexes, Indian origin, rhesus monkey, in vivo, sc; 300 mg/kg single s.c., n=8, mean ± SD; read-out: t1/2 (converted)
Property label: half-life
Answer shape: numeric part, then the unit.

get_value(item= "CC(C)(C#Cc1ccc(-c2ccc(Cl)c3c(NS(=O)(=O)C4CC4)nn(CC(F)F)c23)c([C@H](Cc2cc(F)cc(F)c2)NC(=O)Cn2nc(C(F)F)c3c2C(F)(F)[C@@H]2C[C@H]32)n1)S(C)(=O)=O" , readout=half-life) returns 12 days

----------
- Assay procedure: Plasma GS-CA1 pharmacokinetics in the repeat SHIV challenge study
- Assay type: in vivo, rhesus macaques of Indian origin
- Condition notes: both sexes, Indian origin, rhesus monkey, in vivo, sc, 300 mg/kg, 300 mg/kg single s.c., n=8, mean ± SD
Property label: Cmax (µM)
Use µM as the unit, but write only the number.

// sample "CC(C)(C#Cc1ccc(-c2ccc(Cl)c3c(NS(=O)(=O)C4CC4)nn(CC(F)F)c23)c([C@H](Cc2cc(F)cc(F)c2)NC(=O)Cn2nc(C(F)F)c3c2C(F)(F)[C@@H]2C[C@H]32)n1)S(C)(=O)=O" , its Cmax was 5.5

----------
- Assay procedure: Pilot pharmacokinetic study, single subcutaneous administration
- Condition notes: male, Indian origin, rhesus monkey, in vivo, 100 mg/kg, Plasma GS-CA1 level, 100 mg/kg s.c.; 3 weeks post dose; individual animals; unit inferred
Property label: concentration at 3 weeks (nM)
Write the answer as a number in nM, unit excluded.

Form field concentration at 3 weeks, entry "CC(C)(C#Cc1ccc(-c2ccc(Cl)c3c(NS(=O)(=O)C4CC4)nn(CC(F)F)c23)c([C@H](Cc2cc(F)cc(F)c2)NC(=O)Cn2nc(C(F)F)c3c2C(F)(F)[C@@H]2C[C@H]32)n1)S(C)(=O)=O" : 114

----------
- Assay procedure: in vivo
- Condition notes: male, Indian origin, rhesus monkey, in vivo, sc, 300 mg/kg, AUC0-1344h
Property label: AUC(0-t) (µM·h)
Report only the number, with the unit µM·h understood.

Measured AUC(0-t), CC(C)(C#Cc1ccc(-c2ccc(Cl)c3c(NS(=O)(=O)C4CC4)nn(CC(F)F)c23)c([C@H](Cc2cc(F)cc(F)c2)NC(=O)Cn2nc(C(F)F)c3c2C(F)(F)[C@@H]2C[C@H]32)n1)S(C)(=O)=O [GS-CA1] : 936
